The following compounds are shown together with reported pIC50 values.
# test.target: N474A HIV-1 RT RNase H (Human immunodeficiency virus type 1 group M subtype B, UniProt P03366, N1073A)
# Construct: Amino acid substitutions were introduced into the p66 HIV-1 RT subunit of a HIV-1 RT; His
# test.protocol: RNase H assay, point-mutant N474A RT
pIC50: −log10 of the molar value.

- compound: "O=C(O)c1cn(Cc2ccc(F)cc2)c2ccc(OCc3cccc4ccccc34)cc2c1=O [4o]"
  pIC50: 4.07
- compound: "O=C(O)c1cn(Cc2ccc(F)cc2)c2ccc(OCc3ccc(OCc4ccccc4)cc3)cc2c1=O [4t]"
  pIC50: 5.94
